Where do the numbers come from? From PubChem BioAssay (NCI).

test system: M14 melanoma; experiment: NCI-60 one-dose screen, 48 h; details: 10 µM unless noted
About 83,000 compounds went through this panel and 20% of them were active in at least one assay; those are over-represented in the sample as a whole. Calls of active or inactive are those of the source. The calls were made as follows: active = growth percent below 10; inactive = the rest.
Labels: active, inactive

molecule	assigned_label
C=C(C)[C@@H]1CC[C@]2(C)[C@H](C=CC3=C4C[C@@](C)(CO)CC[C@]4(C)CC[C@]32C)[C@@]1(C)CCCN	active
COC(=O)/C(CCC=C(C)C)=C1\[C@@H](OC(C)=O)C[C@@]2(C)[C@H]1C/C(=N/O)[C@H]1[C@@]3(C)CC/C(=N\O)[C@@H](C)[C@@H]3CC[C@@]12C	inactive
CN(C)CCC(CCN(C)C)(C(=O)O)c1ccccc1	inactive
O=C(NCc1ccc(Cn2c(=O)sn(-c3ccccc3)c2=O)cc1)OCc1ccc2cccc(O)c2n1	active
CN(C)c1ccc(C(=S)c2ccc(N(C)C)cc2)cc1	inactive
CN(C)c1ccc(/C=N\NC(=O)c2ccc3nc(-c4ccc(Cl)cc4)[nH]c3c2)cc1	inactive
CC1(C)CC[C@]23CC[C@]4(C)[C@H](CC[C@@H]5[C@@]6(C)CCNCC(C)(C)[C@@H]6CC[C@]54C)[C@H]2[C@H]1OC3	inactive
O=C(c1ccc(Br)cc1)C(Br)C(c1ccc(Cl)cc1)C(c1ccccc1)[N+](=O)[O-] (stereo not drawn)	inactive
CCOC(=O)c1[nH]cc2c1CCc1sc(Nc3ccccn3)nc1-2	inactive
CC1(C)CC(=O)C2=C(C1)C(c1ccc(Cl)cc1)n1ncc(C#N)c1N2 (stereo not drawn)	inactive
O=C(/C=C/C12c3ccccc3C(c3ccccc31)C1C(=O)NC(=O)C12)c1ccc(Cl)cc1Cl (stereo not drawn)	inactive
COc1ccccc1/C=C/C(=O)Nc1ccc(F)cc1	inactive
COc1ccc(-c2cn(Cc3cc4ccccc4s3)nn2)cc1OCCN1CCCCC1	active
CN(C)c1ccc(/C=C2\C=C(c3nc4ccccc4s3)OC2=O)cc1	inactive
Cc1nc2sc(C(=O)Nc3cccc4ccccc34)c(N)c2cc1C(=O)c1ccccc1	inactive
COC1C(O)CC(OC2CC(OC3CC(O[C@@H]4C(=O)c5c(cc6cc(OC7CC(OC8CC(O)C(O)C(C)O8)C(O)C(C)O7)c(C)c(O)c6c5O)CC4[C@H](OC)[C@@H](O)C(C)=O)OC(C)C3O)OC(C)C2O)OC1C (stereo partly drawn)	active
O=C(Cc1ccc(/C=C/C(=O)c2ncc[nH]2)cc1)Nc1cc(F)c(F)c(F)c1	inactive
O=C(CSc1nnnn1-c1ccccc1)Nc1ccc(Oc2ccccc2)cc1	inactive
CC(=O)c1c(Nc2cccc(F)c2)[nH]c2c(Cl)cc(Cl)c(Cl)c2c1=O	active
COc1ccc(C(=O)C/C(=C\c2ccc(O)c(OC)c2)C(=O)NN)cc1	inactive
COC(=O)c1sccc1-c1cc(O)c(C(=O)Nc2ccccc2)s1	inactive
CN(C)CCn1c(=O)c2ccccc2n2nc3ccccc3c12	inactive
CS(=O)(=O)c1ccc(-c2nc3ccccc3n2CC(=O)N/N=C/c2ccccc2)cc1	inactive

----------
tested on: K-562 leukemia; test: NCI-60 one-dose screen, 48 h; details: 10 µM unless noted
About 83,000 compounds went through this panel and 20% of them were active in at least one assay; those are over-represented in the sample as a whole. Calls of active or inactive are those of the source. How the source made its calls: active means growth percent below 10; inactive means the rest.
Labels: active, inactive

>>> print(df.to_string())
                                    compound  assigned_label
 0  CNC(=O)NCC1OC(n2cnc3c(NC(=O)Nc4ccccc4)ncnc32)C2OC(=O)CC12 (centres undefined)        inactive
 1  Nc1cccc(-c2ccc(COc3ccc(CC4SC(=O)NC4=O)cc3)cc2)c1 (centres undefined)        inactive
 2  COCCn1cc(-c2nc(-c3c[nH]c4ncccc34)cs2)c2ccccc21        inactive
 3  O=C(/C=C/c1ccccc1Cl)c1cccc(OCCCCOc2cccc(C(=O)/C=C/c3ccccc3Cl)c2)c1        inactive
 4  CCOC(=O)CNC1=C(Cl)C(=O)N(Cc2ccc(Cl)cc2)C1=O        inactive
 5  C[C@@H]1CN(c2cnc(C(=O)Nc3cc(F)cc4cccnc34)cn2)C[C@H](C)N1        inactive
 6         CCOc1ccc(NC(=O)Nc2ccc(OCC)cc2)cc1        inactive
 7       CC(C)Cc1nc(Nc2ccccc2)[nH]c(=O)c1C#N        inactive
 8    Fc1cccc(-c2nc(-c3c[nH]c4ncccc34)cs2)c1        inactive
 9  c1cc(OCCN2CCCC2)ccc1CNc1ccc2nc(CCC3CCCCC3)[nH]c2c1          active
10  O=C(NCCCCO)c1cncnc1Nc1ccc2c(ccn2Cc2cccc(F)c2)c1        inactive
11  C/C(Cc1ccc(Cl)cc1)=C(\c1ccc(OCCN2CCCCCC2)cc1)c1ccc(OC(=O)c2ccccc2)cc1          active
12  Cc1cc(=O)oc2cc(Oc3nc(Br)cn4c(Br)cnc34)ccc12        inactive
13       O=[N+]([O-])c1ccccc1Nc1ccc2ccccc2c1        inactive
14  NS(=O)(=O)c1ccc(C(=O)N=Nc2c(O)[nH]c3ccc(Cl)cc23)cc1        inactive
15  O=S(=O)(Nc1cc(Sc2nc3ccccc3s2)c(O)c2ccccc12)c1ccc2ccccc2c1          active
16  COc1ccc(/C=C2\c3cc(OC)c(OC)c(OC)c3CC[C@@H]2O)cc1F        inactive
17  CC1SC(c2ccccc2O)N(NC(=O)CCC(=O)c2nc3ncccc3[nH]2)C1=O (centres undefined)        inactive
18   O=C(c1cccc(N2CCOCC2)n1)c1c[nH]c2ccccc12        inactive
19  N#Cc1c(-c2ccccc2)cc(-c2ccccc2)n(CCCCC(=O)NO)c1=O          active
20  CCCN(CCSSCCNc1nc(N(C)O)nc(N(C)O)n1)c1nc(N(C)O)nc(N(C)O)n1        inactive
21  O=C1CCC(C(=O)N/N=C/c2cc(F)ccc2F)N1 (centres undefined)        inactive
22  COc1ccc(/C=C/C(c2cc(OC)c(OC)c(OC)c2)n2cncn2)cc1O (centres undefined)          active
23  C=C1C(=O)O[C@H]2[C@H]1CC/C(COC(=O)NCc1ccc(Cn3c(=O)sn(-c4ccccc4)c3=O)cc1)=C\CC[C@@]1(C)O[C@@H]21          active
24  COc1ccc(Cl)cc1Nc1nc(C(F)(F)F)ccc1C(=O)N/N=C/c1ccc([N+](=O)[O-])cc1          active
25  COc1ccc(N=C2NN=C(c3c[nH]c4ccccc34)CS2)cc1OC        inactive
26  COc1nc(/C=C\Nc2ccc3c(c2)OCCOCCOCCOCCO3)nc(OC)n1        inactive
27  COc1cc2c(c(OC)c1OC)CCC(c1cccc(C(=O)Nc3ccc(Br)cc3)c1)O2 (centres undefined)        inactive
28  C=CC(=O)Nc1cccc(Oc2nccc(Nc3nnc(-c4ccc(Br)cc4)s3)n2)c1        inactive
29  C=C(C)[C@@H]1CC[C@]2(C(=O)N3CCNCC3)CC[C@]3(C)[C@H](CC[C@@H]4[C@@](C)(CCC(=O)N5CCNCC5)[C@H](C(=C)C)CC[C@]43C)[C@@H]12          active
30     Fc1ccc(/C=C/[C@@H]2C[C@@H](F)CCO2)cc1        inactive
31  CSc1ccc(N2C(=N)C(=S)N(c3ccc(C)cc3)C2=O)cc1        inactive
32  FC(F)(F)c1[nH]ncc1-c1nc2ccc3[nH]ncc3c2c2c1CCCC2        inactive
33  COc1cc(-c2nccc3[nH]c(-c4cccc5[nH]ccc45)nc23)cc(OC)c1OC          active
34  O=CN1N=C(c2cccc(Nc3ccnc4cc(Cl)ccc34)c2)CC1c1ccc(Cl)cc1 (centres undefined)        inactive
35  COc1ccc(-c2cc(-c3cccnc3)nc3sc4c(N)c(C(C)=O)c(-c5ccccc5)nc4c23)cc1OC        inactive
36  CCN(CC)CCCC(Cc1ccccc1)Nc1c2ccc(Cl)cc2nc2ccc(OC)cc12 (centres undefined)          active
37  Cc1ccc(C)c2c1sc1nc(N3CCOCC3)c(C#N)c(=O)n12        inactive
38  CN1CC(c2ccc(Br)cc2)C(C(=O)c2ccc(Br)cc2)C12C(=O)Nc1ccccc12 (centres undefined)        inactive

----------
test system: SK-MEL-2 melanoma; experiment: NCI-60 one-dose screen, 48 h (100 = growth as untreated, 0 = no growth, -100 = all killed); conditions: 10 µM unless noted
This is part of a sample that, as a whole, favours compounds with a hit. Of some 83,000 tested, about 20% had one in any assay.
readout_kind: growth (%)

In [3]: df
Out[3]:
                                    compound  target_or_test_system  quantitative_readout
 0  CC(C)(C)CC(C)(C)Nc1c(-c2c(O)c3ccccc3oc2=O)nc2sc3ccccc3n12      SK-MEL-2 melanoma                  66.2
 1        O=c1c2ccccc2n(C[C@H]2CO2)c2ccccc12      SK-MEL-2 melanoma                 -64.5
 2              CCN(CC)CCOc1ccc2ccc(=O)oc2c1      SK-MEL-2 melanoma                   103
 3       CC(=O)Nc1sc2c(c1-c1nc3ccccc3s1)CNC2      SK-MEL-2 melanoma                  23.2
 4     Cc1nn(C)c2ncnc(N/N=C/c3cccc(O)c3O)c12      SK-MEL-2 melanoma                  31.5
 5  Nc1cc(C(=O)O)cc(-n2c(O)c(C=C3N=c4ccccc4=N3)sc2=S)c1      SK-MEL-2 melanoma                   101
 6             CN(C)Cc1cc(C(C)(C)C)cc(Br)c1O      SK-MEL-2 melanoma                   113
 7  C=CCN=c1sc(-c2ccc3ccccc3c2)cn1NC(=O)c1cc2ccc1CCc1ccc(cc1)CC2      SK-MEL-2 melanoma                  85.6
 8  Cc1ccc(OCCOCCOCCOCCOCCOc2ccc(C)n(O)c2=S)c(=S)n1O      SK-MEL-2 melanoma                  15.7
 9  Cc1cc(Cl)nc(N2CCN(CCNc3ccnc4cc(Cl)ccc34)CC2)n1      SK-MEL-2 melanoma                  61.1
10  O=C(C1=Cc2cc3ccccc3n2Cc2cnnn21)c1ccc(F)cc1      SK-MEL-2 melanoma                   103
11  O=C1NC(=O)C(c2coc3cc(Br)ccc23)=C1c1c[nH]c2ccccc12      SK-MEL-2 melanoma                  34.1
12  O=C(/C=C/c1ccccc1)c1ccc(-n2cc(CN3CCN(c4cc5c(cc4F)c(=O)c(C(=O)O)cn5C4CC4)CC3)nn2)cc1      SK-MEL-2 melanoma                  96.8
13  COc1ccc(C/C(C)=C(\c2ccc(Cl)cc2)c2ccc(OCCN3CCCC3)cc2)cc1      SK-MEL-2 melanoma                  96.8
14  O=C(/C=C/C12c3ccccc3C(c3ccccc31)C1C(=O)NC(=O)C12)c1ccco1 (stereo not given)      SK-MEL-2 melanoma                  7.24
15  Cc1ccc(-c2nc(SCC(=O)N3CCN(c4cc5c(cc4F)c(=O)c(C(=O)O)cn5C4CC4)CC3)nc(Cl)c2C#N)cc1      SK-MEL-2 melanoma                  97.8
16  COC(=O)[C@@]12CC=C(C)[C@]3(C[C@H](c4ccoc4)OC3=O)[C@H]1C=C[C@@H](O)[C@@]2(O)C(=O)OC      SK-MEL-2 melanoma                  84.6
17  O=C1O[C@@H](c2ccccc2Cl)[C@@H]2c3cc4c(cc3CCN12)OCO4      SK-MEL-2 melanoma                  91.7
18  COc1cc2c3c(c4c5ccccc5[nH]c4c2c(OC)c1OC)C(=O)N(CCN1CCCCC1)C3=O      SK-MEL-2 melanoma                  49.4
19  Cc1cc(C)c2c(c1)N(C)c1ncnc(-n3c(C)nc4cc(C)ccc43)c1CC2C (stereo not given)      SK-MEL-2 melanoma                  46.7
